The reported measurements were obtained from paper PMC9295122.

Molecular target: UniProt:A0A0H2XJ46
Sequence (A0A0H2XJ46 entry or part of it): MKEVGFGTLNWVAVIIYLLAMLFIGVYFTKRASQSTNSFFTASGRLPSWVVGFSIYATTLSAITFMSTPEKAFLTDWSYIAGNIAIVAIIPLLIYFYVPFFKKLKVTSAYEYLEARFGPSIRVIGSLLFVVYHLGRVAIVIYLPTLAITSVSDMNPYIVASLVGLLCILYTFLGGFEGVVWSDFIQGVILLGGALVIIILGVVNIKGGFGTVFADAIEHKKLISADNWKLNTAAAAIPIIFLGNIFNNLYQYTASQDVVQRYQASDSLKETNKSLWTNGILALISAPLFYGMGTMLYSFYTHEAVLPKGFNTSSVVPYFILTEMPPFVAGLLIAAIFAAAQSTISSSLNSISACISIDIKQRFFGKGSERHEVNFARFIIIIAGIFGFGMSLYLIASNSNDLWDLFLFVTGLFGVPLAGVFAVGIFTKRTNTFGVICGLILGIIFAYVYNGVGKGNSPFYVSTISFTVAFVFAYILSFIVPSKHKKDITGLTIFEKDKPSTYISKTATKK
Test: nanoDSF thermal shift assay, SaSiaT
Assay type: binding
Details: SaSiaT, three experiments, 1.25 mM
Attribute Measured: Overall average (Tm) (°C)

INSERT INTO assay_data (compound, readout_number) VALUES
  ('CC(=O)NC1C(O)CC(O)(C(=O)O)OC1C(O)C(O)CBr (centres unmarked)', 50.5),
  ('CSCC(O)C(O)C1OC(O)(C(=O)O)CC(O)C1NC(C)=O (centres unmarked)', 50.3),
  ('O=C(Cc1ccccc1)NC1C(O)CC(O)(C(=O)O)OC1C(O)C(O)CO (centres unmarked)', 51.2),
  ('CC(=O)N[C@H]1[C@H]([C@H](O)[C@H](O)CO)OC(O)(C(=O)O)C[C@@H]1O (some centres unmarked) [Neu5Ac, 5-N-acetyl neuraminic acid, reference compound]', 51.2),
  ('CC(=O)NC1C(O)CC(O)(C(=O)O)OC1C(O)C(C)O (centres unmarked)', 43.0),
  ('O=C(NC1C(O)CC(O)(C(=O)O)OC1C(O)C(O)CO)c1ccccc1 (centres unmarked)', 45.9),
  ('O=C(CCl)NC1C(O)CC(O)(C(=O)O)OC1C(O)C(O)CO (centres unmarked)', 49.2),
  ('CC(=O)NC1C(OCc2ccc(C#N)cc2)CC(O)(C(=O)O)OC1C(O)C(O)CO (centres unmarked)', 53.7);

---

Assay: Plasma-protein binding by RED, human
Type: in vitro ADME
Conditions: pH 7.2, read-out: Plasma-protein binding by RED (% unbound compound, average n=2)
Measured fraction unbound at 4 h, 5 μM accompanies every entry in the list below.
Please state the value as a number alone, without comment.

Reference set, count: 2
INSERT INTO measurements (compound, attribute_measured, readout_number) VALUES
  ('CC(=O)NC1C(OCc2cc(Br)cc(Br)c2)CC(O)(C(=O)O)OC1C(O)C(O)CO (stereo not drawn)', 'fraction unbound at 4 h, 5 μM', 0.27),
  ('CC(=O)NC1C(OCc2cc(F)cc(F)c2)CC(O)(C(=O)O)OC1C(O)C(O)CO (stereo not drawn)', 'fraction unbound at 4 h, 5 μM', 0.74);

Please look up its fraction unbound at 4 h, 5 μM: CC(=O)NC1C(OCc2ccccc2)CC(O)(C(=O)O)OC1C(O)C(O)CO (stereo not drawn)
0.85

---

Measured microsomal CLint at 1 µM accompanies every entry in the list below.
Test: Metabolic stability in human liver microsomes
Type: in vitro ADME
Settings: human liver microsomes; read-out: intrinsic clearance Clint

INSERT INTO measurements (compound, result) VALUES
  ('CC(=O)NC1C(OCc2cc(F)cc(F)c2)CC(O)(C(=O)O)OC1C(O)C(O)CO (stereo not drawn)', '< 10 µL/min/mg'),
  ('CC(=O)NC1C(OCc2ccccc2)CC(O)(C(=O)O)OC1C(O)C(O)CO (stereo not drawn)', '< 10 µL/min/mg');

Next compound, please.
Please look up its microsomal CLint at 1 µM: CC(=O)NC1C(OCc2cc(Br)cc(Br)c2)CC(O)(C(=O)O)OC1C(O)C(O)CO (stereo not drawn)
< 10 µL/min/mg

---

Experiment: Metabolic stability in rat liver microsomes
Type: in vitro ADME
Settings: rat liver microsomes; read-out: intrinsic clearance Clint
Attribute Measured: microsomal CLint at 1 µM

Reference set, count: 2
INSERT INTO measurements (compound, attribute_measured, result) VALUES
  ('CC(=O)NC1C(OCc2ccccc2)CC(O)(C(=O)O)OC1C(O)C(O)CO (stereo not drawn) [Compound 3a]', 'microsomal CLint at 1 µM', '< 10 µL/min/mg'),
  ('CC(=O)NC1C(OCc2cc(Br)cc(Br)c2)CC(O)(C(=O)O)OC1C(O)C(O)CO (stereo not drawn) [Compound 3f]', 'microsomal CLint at 1 µM', '< 10 µL/min/mg');

Next compound, please.
Please look up its microsomal CLint at 1 µM: CC(=O)NC1C(OCc2cc(F)cc(F)c2)CC(O)(C(=O)O)OC1C(O)C(O)CO (stereo not drawn) [Compound 3e]
< 10 µL/min/mg
